The entries below are paired with their reported Kd.
Target: T1, EsCas13d, nuclease-dead (Eubacterium siraeum, UniProt B0MS50, R295A;H300A;R849A;H854A)
T1 sequence: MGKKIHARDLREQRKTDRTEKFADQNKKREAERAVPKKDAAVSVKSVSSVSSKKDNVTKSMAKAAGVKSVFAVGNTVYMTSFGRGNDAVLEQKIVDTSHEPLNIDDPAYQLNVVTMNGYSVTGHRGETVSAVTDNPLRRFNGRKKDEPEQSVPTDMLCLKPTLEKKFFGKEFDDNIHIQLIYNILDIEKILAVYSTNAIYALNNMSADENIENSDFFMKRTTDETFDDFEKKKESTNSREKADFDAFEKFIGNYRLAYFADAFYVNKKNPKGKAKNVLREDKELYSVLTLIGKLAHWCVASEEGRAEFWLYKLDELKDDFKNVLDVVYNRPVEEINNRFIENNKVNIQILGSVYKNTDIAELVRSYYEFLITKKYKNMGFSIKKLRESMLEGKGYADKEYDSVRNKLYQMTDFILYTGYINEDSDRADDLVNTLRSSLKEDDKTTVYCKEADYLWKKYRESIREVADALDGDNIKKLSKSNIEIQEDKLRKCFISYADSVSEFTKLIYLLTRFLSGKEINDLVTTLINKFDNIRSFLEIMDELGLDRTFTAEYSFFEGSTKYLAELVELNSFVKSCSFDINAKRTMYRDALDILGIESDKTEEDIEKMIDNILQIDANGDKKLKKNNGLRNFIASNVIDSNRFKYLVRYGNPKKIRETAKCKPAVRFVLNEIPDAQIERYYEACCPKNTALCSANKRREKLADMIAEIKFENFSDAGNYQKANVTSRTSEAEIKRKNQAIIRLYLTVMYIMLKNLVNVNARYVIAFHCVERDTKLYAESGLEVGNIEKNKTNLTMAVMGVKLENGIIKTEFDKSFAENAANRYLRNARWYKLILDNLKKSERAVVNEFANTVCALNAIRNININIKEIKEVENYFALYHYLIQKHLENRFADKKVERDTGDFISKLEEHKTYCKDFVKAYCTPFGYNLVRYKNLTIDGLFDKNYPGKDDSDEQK
Assay: crRNA (strand 1, pre-loaded); Mg2+; 40 mM Tris-HCl pH 7.5, 150 mM NaCl, 6 mM MgCl2, 1 mM DTT, 0.1% Tween-20, 0.2 mg/ml BSA; 25 C; 10 min per concentration, then washed
Conditions: tags: His6-TwinStrep-SUMO cleaved; N-terminal SNAP kept (SNAP-Surface 488); label: 3' end held by stalled T7 RNA polymerase
Supply the numeric figure in nM, leaving out any unit text.

binder	resultUnits	Kd
target 2 MT 5'PFS ACC 3'PFS UUC (mixed) RNA 1: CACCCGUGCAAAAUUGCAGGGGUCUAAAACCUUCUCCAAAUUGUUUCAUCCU RNA 2: GGGAAUGGAUCCACAUCUACGAAUUCACCAGGAUGAAACAAUUUGGAGAAGUUCAGAUCGGAAGAGCACACGU	nM	8.2
target 1 insC 3' of 1,insG 3' of 1 (mixed) RNA 1: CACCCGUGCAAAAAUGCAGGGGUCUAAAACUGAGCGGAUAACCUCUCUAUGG RNA 2: GGGAAUGGAUCCACAUCUACGAAUUCGUACCAUAGAGAGGUUAUCCGCUCACGCCGAGAUCGGAAGAGCACACGU	nM	9

Ask: Complete the entry with Kd for target 1 A1C,G17U (mixed) RNA 1: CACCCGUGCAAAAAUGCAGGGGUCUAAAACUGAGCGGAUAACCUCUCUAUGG RNA 2: GGGAAUGGAUCCACAUCUACGAAUUCGUACCAUAUAGAGGUUAUCCGCUCCCCGAGAUCGGAAGAGCACACGU
Result: 34

Ask: Complete the entry with Kd for target 3 insA 3' of 6,insG 3' of 2 (mixed) RNA 1: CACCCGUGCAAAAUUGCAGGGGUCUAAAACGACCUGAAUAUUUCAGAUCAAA RNA 2: GGGAAUGGAUCCACAUCUACGAAUUCGUUUUUGAUCUGAAAUAUUCAAGGUGCUGCAGAUCGGAAGAGCACACGU
Result: 4.05

Ask: Complete the entry with Kd for target 1 MT 5'PFS GUA 3'PFS UUA (mixed) RNA 1: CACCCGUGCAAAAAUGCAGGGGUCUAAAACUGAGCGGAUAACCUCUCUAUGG RNA 2: GGGAAUGGAUCCACAUCUACGAAUUCGUACCAUAGAGAGGUUAUCCGCUCAUUAAGAUCGGAAGAGCACACGU
Result: 9.85

Ask: Complete the entry with Kd for target 1 del7,del15 (mixed) RNA 1: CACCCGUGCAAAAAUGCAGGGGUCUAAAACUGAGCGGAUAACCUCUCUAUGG RNA 2: GGGAAUGGAUCCACAUCUACGAAUUCGUACCAUAGAAGGUUAUCGCUCACCGAGAUCGGAAGAGCACACGU
Result: 17.3

Ask: Complete the entry with Kd for target 3 complement block 2-6 (mixed) RNA 1: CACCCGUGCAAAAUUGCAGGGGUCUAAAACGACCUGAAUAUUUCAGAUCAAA RNA 2: GGGAAUGGAUCCACAUCUACGAAUUCGUUUUUGAUCUGAAAUAUUGUCCACUGCAGAUCGGAAGAGCACACGU
Result: 58.5

Ask: Complete the entry with Kd for target 1 insU 3' of 18,insA 3' of 2 (mixed) RNA 1: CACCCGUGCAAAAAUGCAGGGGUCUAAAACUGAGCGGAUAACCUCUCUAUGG RNA 2: GGGAAUGGAUCCACAUCUACGAAUUCGUACCAUAUGAGAGGUUAUCCGCUCAACCGAGAUCGGAAGAGCACACGU
Result: 33.5
